Tested on: SF-268 CNS
Assay: NCI-60 one-dose screen, 48 h (100 = growth as untreated, 0 = no growth, -100 = all killed)
Conditions: 10 µM unless noted
Compounds without any hit were thinned out: in the full panel of roughly 83,000, 20% have a hit. Active and inactive are the calls of the source. Rule for the calls: active = growth percent below 10; inactive = the rest.

SMILES INPUT	growth
CCCCCN(CCCCC)CCCCCCCCN1CCCc2ccccc21	86.9% (inactive)
COc1ncc(-c2ccc3nccc(C#CCCCCC(=O)O)c3c2)cc1NS(=O)(=O)c1ccc(F)cc1F	36.5% (inactive)
C[n+]1c(-c2ccccc2)c2cc(N)ccc2c2ccccc21	-6.88% (active)
COC(=O)C(=Cc1ccccc1[N+](=O)[O-])C(=O)OC	0.377% (active)
CC1(C)S[C@@H]2[C@H](NC(=O)[C@H](C(=O)O)c3cccs3)C(=O)N2[C@H]1C(=O)O	110% (inactive)
O=[N+]([O-])c1ccc(O)c(-c2nc3ccccc3s2)c1	76.1% (inactive)
